Form field: pIC50 (one value per entry).
# Measurement Target: Cyclin-dependent kinase 5 activator 1 [99-307] (Homo sapiens, UniProt Q00535)
# Sequence (Q15078 99-307): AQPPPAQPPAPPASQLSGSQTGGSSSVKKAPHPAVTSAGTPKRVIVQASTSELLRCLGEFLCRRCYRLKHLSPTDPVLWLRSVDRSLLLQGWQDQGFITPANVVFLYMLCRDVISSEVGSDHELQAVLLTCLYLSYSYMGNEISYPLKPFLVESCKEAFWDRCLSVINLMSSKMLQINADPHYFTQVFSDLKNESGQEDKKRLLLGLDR
# Sequence (Q00535 whole entry): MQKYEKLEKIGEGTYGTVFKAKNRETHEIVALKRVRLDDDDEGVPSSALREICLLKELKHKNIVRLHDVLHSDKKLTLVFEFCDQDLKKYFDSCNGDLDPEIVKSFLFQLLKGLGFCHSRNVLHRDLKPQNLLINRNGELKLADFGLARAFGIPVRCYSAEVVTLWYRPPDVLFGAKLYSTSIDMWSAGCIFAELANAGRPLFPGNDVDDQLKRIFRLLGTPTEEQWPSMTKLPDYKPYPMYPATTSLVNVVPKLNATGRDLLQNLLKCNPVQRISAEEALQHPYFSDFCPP
pIC50: −log10 of the molar value.

| Molecule | Measurement Target | pIC50 |
| --- | --- | --- |
| C=Cc1ccc2c(c1)NC(=O)C2c1[nH]c2ccccc2c1N=O (centres undefined) [6-vinylindirubin-3-oxime] | Cyclin-dependent kinase 5 activator 1 [99-307] (Homo sapiens, UniProt Q00535) | 6.38 |
| CC(=O)ON=C1C(=C2C(=O)Nc3cc(Cl)ccc32)Nc2ccccc21 [6-chloroindirubin-3-acetoxime] | Cyclin-dependent kinase 5 activator 1 [99-307] (Homo sapiens, UniProt Q00535) | 6.70 |
| C=Cc1ccc2c(c1)NC(=O)/C2=C1\Nc2ccccc2C1=O [6-vinylindirubin] | Cyclin-dependent kinase 5 activator 1 [99-307] (Homo sapiens, UniProt Q00535) | 5.62 |
| O=Nc1c(C2C(=O)Nc3cc(Br)c([N+](=O)[O-])cc32)[nH]c2ccccc12 (centres undefined) | Cyclin-dependent kinase 5 activator 1 [99-307] (Homo sapiens, UniProt Q00535) | 6.82 |

These measurements were taken from BindingDB's records for doi:10.1021/jm031016d.
